- assay.summary: Single dose escalation and multiple dosing pharmacokinetic study of LipoCol Forte
- test.parameters: human, plasma, oral, 1 LipoCol Forte capsule, MRT, healthy subjects, fed, single dose one LipoCol Forte capsule; mean ± SD, n = 14
Kindly supply the reported MRT values for the records listed here.
Give bare numbers, in h.

[[record]]
compound = "CC[C@H](C)C(=O)O[C@H]1C[C@@H](C)C=C2C=C[C@H](C)[C@H](CC[C@@H](O)C[C@@H](O)CC(=O)O)[C@H]21"
readout_number = 7.15


Lab note: next compound to report on.
So for CC[C@H](C)C(=O)O[C@H]1C[C@@H](C)C=C2C=C[C@H](C)[C@H](CC[C@@H]3C[C@@H](O)CC(=O)O3)[C@H]21 [Pure lovastatin, lovastatin, reference compound] , the logged MRT turned out to be 5.55

====

What Tmax was measured for each of the following?
- assay.summary: Single dose escalation and multiple dosing pharmacokinetic study of LipoCol Forte
- test.parameters: human, plasma, oral, 1 LipoCol Forte capsule, Tmax, healthy subjects, fed, multiple doses one LipoCol Forte capsule BID for 5 days; mean ± SD, n = 14
One number for each entry, in h.

[[record]]
compound = "CC[C@H](C)C(=O)O[C@H]1C[C@@H](C)C=C2C=C[C@H](C)[C@H](CC[C@@H](O)C[C@@H](O)CC(=O)O)[C@H]21"
measurement_kind = "Tmax"
readout_number = 4.36


Lab note: measured Tmax of CC[C@H](C)C(=O)O[C@H]1C[C@@H](C)C=C2C=C[C@H](C)[C@H](CC[C@@H]3C[C@@H](O)CC(=O)O3)[C@H]21 [Pure lovastatin, lovastatin, reference compound] was 3.39

====

For each entry below, report its half-life value.
- assay.summary: Single dose escalation and multiple dosing pharmacokinetic study of LipoCol Forte
- test.parameters: human, plasma, oral, 1 LipoCol Forte capsule, T1/2, healthy subjects, fed, single dose one LipoCol Forte capsule; mean ± SD, n = 14
Give bare numbers, in h.

[[record]]
molecule = "CC[C@H](C)C(=O)O[C@H]1C[C@@H](C)C=C2C=C[C@H](C)[C@H](CC[C@@H](O)C[C@@H](O)CC(=O)O)[C@H]21 [Lovastatin acid, lovastatin acid]"
readout_number = 2.57


Short answer for CC[C@H](C)C(=O)O[C@H]1C[C@@H](C)C=C2C=C[C@H](C)[C@H](CC[C@@H]3C[C@@H](O)CC(=O)O3)[C@H]21 [Pure lovastatin, lovastatin, reference compound] : half-life was 2.36

====

Assign AUC(0-t) to each entry below.
- assay.summary: Single dose escalation and multiple dosing pharmacokinetic study of LipoCol Forte
- test.parameters: human, plasma, oral, 2 LipoCol Forte capsules, AUC0–12, healthy subjects, fed, single dose two LipoCol Forte capsules; mean ± SD, n = 14
Number first, unit second.

[[record]]
compound = "CC[C@H](C)C(=O)O[C@H]1C[C@@H](C)C=C2C=C[C@H](C)[C@H](CC[C@@H]3C[C@@H](O)CC(=O)O3)[C@H]21 [Pure lovastatin, lovastatin, reference compound]"
result = "13.4 ng·h/mL"


Turning now to a further record.
GET /value?item= CC[C@H](C)C(=O)O[C@H]1C[C@@H](C)C=C2C=C[C@H](C)[C@H](CC[C@@H](O)C[C@@H](O)CC(=O)O)[C@H]21 &field=AUC(0-t) returns 79.1 ng·h/mL

Value source: paper PMC3513969
